The reported measurements were obtained from paper PMC7169973.

Target: T1, 14-3-3σ, full-length, recombinant (human, UniProt P31947 1-248)
T1 sequence (looked up): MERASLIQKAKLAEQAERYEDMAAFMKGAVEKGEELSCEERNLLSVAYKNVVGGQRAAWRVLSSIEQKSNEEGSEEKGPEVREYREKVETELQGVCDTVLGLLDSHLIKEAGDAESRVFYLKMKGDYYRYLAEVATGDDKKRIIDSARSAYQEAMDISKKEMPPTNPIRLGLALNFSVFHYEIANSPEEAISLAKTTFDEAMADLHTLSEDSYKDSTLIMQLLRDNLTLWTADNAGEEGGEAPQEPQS
Assay: ITC
pKd: −log10 of the molar value. Where no end group is shown, it is not given here. [ ]: non-standard residue; d: D form. pT = C[C@@H](OP(=O)(O)O)[C@H](N)C(=O)O
reported property: pKd

binder="KYYITGEAEGFPA[pT]V (peptide, UniProt P03372 581-595, looked up) [ERα C-terminal phospholigand (ERα-ctp, 2)]" reported_property=pKd recorded_result=6.12
